- experiment-notes: Pharmacokinetic studies, single administration
- Type: in vivo, male Swiss albino mice
- reported-conditions: mouse, plasma, ip; I.P. 2, 10 mg/kg, Solutol-based vehicle
assay-endpoint: Tmax (h)

[[record]]
smiles_str = "CCCCc1cn(-c2ccc(-c3nnc(-c4ccccc4C(F)(F)F)o3)cc2)nn1"
number = 2


###

- experiment-notes: Pharmacokinetic studies, single administration
- Assay type: in vivo, male Swiss albino mice
- reported-conditions: mouse, plasma, ip; I.P. 2, 10 mg/kg, Solutol-based vehicle
- Procedure: The pharmacokinetic study was performed in male Swiss albino mice from Hylasco Biotechnology Pvt. Ltd. (A Charles River technology Licensee). The tissue distribution study was performed in male Swiss albino mice and in male FOXN1^nu/nu nude mice (Envigo spa). The efficacy study was performed in male FOXN1^nu/nu nude mice. Single intravenous administration studies were done as follows: • 1. […]
assay-endpoint: AUC(0-inf) (ng·h/mL)

[[record]]
smiles_str = "CCCCc1cn(-c2ccc(-c3nnc(-c4ccccc4C(F)(F)F)o3)cc2)nn1"
number = 5630

